Assay: melting temperature; fluorescence melt of hairpins on a sequencing array, two-state fit, raised by 9.35 °C to match UV melts
Details: sodium 0.088 M

sequence	Tm [°C]
GATCTCCGTTGAGATC ((((((....))))))	52.6
GGCTCACGAAAGTGCGCC (((.(((....))).)))	58.4
TCCGGGAAACCGGA (((((....)))))	53.2
TAGCGGAAACGCTA (((((....)))))	54.3
GATCCCTTGAGGGATC ((((((....))))))	62.4
GGCGTCGAAAGACTAGCC ((((((....)))..)))	54.5
GTTCCGCGAAAGCGAAC (((.(((....))))))	50.8
GCTTCTCGAAAGAGCAGC (((.(((....))).)))	46.8
GGTGGCGGAAACGTCACC ((((.((....)).))))	63.3
GGATCTGGAAACAGGTCC (((.(((....))).)))	50.6
GTGATGGGAAACTATCAC (((((.(....).)))))	45.6
GGGCACGAAAGTGTTCCC ((((((....)))..)))	46.1
GATCGGCCGCCCGATC ((((((....))))))	60.5
GTAAACCGAAAGGTATAC (((.(((....))).)))	40.5
GGCTACGGAAACGTAGTC (.(((((....))))).)	53.6
GATCATTAGATGATC ((((((...))))))	44.4
GTGCGAACGAAAGTTCAC (((..(((....))))))	53.3
GTACTTGGAAACGAGTAC (((((.(....).)))))	44.2
GATCGCGATTGCGATC ((((((....))))))	68.7
GGTGACGAAAGTCACACC ((((((....)))..)))	56
GGCGAGAAATCGCC (((((....)))))	65.5
GTACTTACGAAAGTATAC (((..(((....))))))	16.2
GGTTATACGAAAGTAACC (((..(((....))))))	38.1
GCGAGGCGAAAGCCGGGC ((..(((....)))..))	65.7
GGTCATCGAAAGATCACC (((.(((....))).)))	35.7
CTGATGAAAATCAG (((((....)))))	43.4
CGAACGGAAACGTGTCG ((((((....))).)))	38.5
GGGTTGCGAAAGCACCCC (((.(((....))).)))	62.9
GCCTTTGGAAACAAAGAC (.(((((....))))).)	34.7
GGGGTCGAAAGACTTCCC ((((((....)))..)))	39
GGTTCTCGAAAGAGTACC (((.(((....))).)))	46.7
GTTTTGGCGAAAGCCAAC (((..(((....))))))	38.6
GTGACATCGAAAGATCAC (((..(((....))))))	33
GCGGACGGAAACGTCCAC (.(((((....))))).)	51.1
GATCCCGCTTGGGATC ((((((....))))))	59.5
GAGACAGGAAACTGTTTC ((.((((....)))).))	37.9
GCGAATGAAAATTCGC ((((((....))))))	65
GTTGTTTCGAAAGAAAAC (((..(((....))))))	41.8
GCCAGTGGAAACGCTGGC (((((.(....).)))))	61
GCCATCGAAAGATAGGGC ((((((....)))..)))	44.6
GCAGCCGAAAGGCTCTGC ((((((....)))..)))	46.3
GGCTCTTCGAAAGAAGCC (((..(((....))))))	37.6
GGGCCGCGAAAGCGACCC (((.(((....))).)))	68.8
CGTCTCGGAAACGAAACG (((.(((....))).)))	38.5
GTCTGCGAAAGCACTGAC ((((((....)))..)))	36.3
GAACACGAAAGTGCGTTC ((((((....)))..)))	31.2
